All figures here come from the Deep4Chem optical property database.

# Assay remarks: solvent given as SMILES
# Protocol conditions: in C1CCOC1
Here, each record is paired with measured absorption maximum data.
Quick note: give the figure in nm, leave out the unit.

The molecule CC(=O)N(Cc1ccccn1)c1c2ccccc2c2c3c(cccc13)C(=O)N(Cc1ccccn1)C2=O showed absorption maximum equal to 436

Form: molecule = F[B-]1(F)n2c(c(-c3ccccc3)c(-c3ccccc3)c2-c2ccccc2)C=C2C(c3ccccc3)=C(c3ccccc3)C(c3ccccc3)=[N+]21 ; absorption maximum = 576

***
c1ccc(N2c3ccccc3Sc3cc(-c4cccc5nc6ccccc6cc45)ccc32)cc1 yielded absorption maximum of 407

The recorded absorption maximum for entry CCCCCCc1ccc2c3c(ccc2c1)O[B-](F)(F)[N+](c1ccc([N+]2=Cc4c(ccc5cc(CCCCCC)ccc45)O[B-]2(F)F)cc1)=C3 equals 425

Briefly, absorption maximum measured for CN(C)c1ccc(C2=Nc3sc4cc(F)ccc4[n+]3[B-](F)(F)O2)cc1 : 425

---

# Assay remarks: solvent given as SMILES
# Protocol conditions: in ClCCl
This section presents compounds with their documented absorption maximum values.
The answer is to be given in nm; state only the numeric part.

Known results for compounds:
In plain terms, CCCCC(CC)COc1ccc2nc(-c3ccc(-c4c(C)noc4C)s3)sc2c1 (centres undefined) has a documented absorption maximum of 359

Reported absorption maximum for COc1ccc(C(=O)NC(C)(C)C)c2c1ccc1c3ccccc3c3ccccc3c12 was 334

Now examine the next entry.
The compound listed as Cc1cc(C)c(C2=C3C=C(/C=C/C(=O)OC(C)(C)C)C=[N+]3[B-](F)(F)n3cc(/C=C/C(=O)OC(C)(C)C)cc32)c(C)c1 shows absorption maximum equal to 580

---

# Assay remarks: solvent given as SMILES
# Protocol conditions: in CO
Readings of absorption maximum for the listed compounds
Report the value in nm with no unit label.

Examples with their reported absorption maximum follow.
Data point: O=C1/C(=C\c2ccc3oc4ccccc4c3c2)S(=O)(=O)c2ccccc21 ; absorption maximum = 367

// sample c1ccc2cc(-c3cc(-c4nccs4)nc(-c4nccs4)c3)ccc2c1 , its absorption maximum was 333

More entries:
absorption maximum in this record for O=C1Nc2ccccc2/C1=C/C(=O)c1ccc(O)cc1 : 336

---

Overview of reported absorption maximum across a group of compounds:
# Assay remarks: solvent given as SMILES
# Protocol conditions: in ClC(Cl)Cl
Respond numerically; units are nm and should not be typed.

Some compounds with known absorption maximum results, for comparison:
Entry under test: CCCCCCC(CCCCCC)N1C(=O)c2cccc3c(-c4ccc(OC)c5ccccc45)ccc(c23)C1=O . Its absorption maximum was 325

Record CCC[n+]1ccc(/C=C/c2ccc(N(C)C)cc2)cc1 , field absorption maximum: 496

CCCCCCCCC1(CCCCCCCC)c2cc(-c3ccc([N+](=O)[O-])cc3)ccc2-c2ccc(-c3ccc([N+](=O)[O-])cc3)cc21 yielded absorption maximum of 373

In plain terms, CCCCCCn1c2cc(/C=C(\C#N)c3cccs3)ccc2c2ccc(/C=C(\C#N)c3cccs3)cc21 has a documented absorption maximum of 436.68

Please examine the following record next.
Measured absorption maximum, CCCCn1c2ccccc2c2ccc3c4cc(-c5ccccc5)ccc4n(CCCC)c3c21 : 330

---

Below: a set of entries, each annotated with reported absorption maximum.
# Assay remarks: solvent given as SMILES
# Protocol conditions: in ClCCCl
Numeric answer only, unit nm assumed.

Consider the reported absorption maximum for these molecules:
// sample CN(C)c1cc(C#N)c(N(C)C)c(C#N)c1 , its absorption maximum was 394.48

Data point: CCn1c(=O)nc2n(C)c3cc(C)ccc3nc-2c1=O ; absorption maximum = 448

// field: absorption maximum; key: C=CCOC(=O)C(C#N)=C1C=C(/C=C/c2ccc(N(C)C)cc2)OC(/C=C/c2ccc(N(C)C)cc2)=C1 ; value = 482

For this molecule ( CC1(C)c2ccccc2N(c2ccc(-c3nnc(-c4ccccc4O)o3)cc2)c2ccccc21 ), measured absorption maximum is 368

Entry Cc1ccc2nc3[nH]c(=O)[nH]c(=O)c3nc2c1 — recorded absorption maximum = 384

Read the next record carefully.
The molecule listed as CCCCCCCCCCCCCCCCOC(=O)c1ccc(N(c2ccccc2)c2ccccc2)cc1 has a reported absorption maximum of 336
